B1: LINE1-full (parent)
chain: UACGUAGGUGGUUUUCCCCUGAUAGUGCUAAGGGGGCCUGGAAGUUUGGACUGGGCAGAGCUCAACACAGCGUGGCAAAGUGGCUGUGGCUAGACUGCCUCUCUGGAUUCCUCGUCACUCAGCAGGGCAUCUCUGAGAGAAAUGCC

Variants of: B1
Procedure text: self-cleavage, relative activity (ratio to wild type); higher = more cleavage; in vitro, sequencing; the parent is a self-cleaving ribozyme
Quantity name: self-cleavage
Respond numerically, and do not add a unit to the figure.

Illustrative cases are given below, each with its answer.
self-cleavage reading for G72A G105U : 1.29

self-cleavage reading for U62A G127U : 0.02

self-cleavage reading for G35A G72A : 1.18

self-cleavage reading for C17G : 0.91

self-cleavage reading for U45A U96C : 0.13

---
self-cleavage reading for A64G U134C : 0.28

self-cleavage reading for U73C C116U : 1.39

self-cleavage reading for U73A U115C : 1.9

self-cleavage reading for U73C G74A : 2.38

self-cleavage reading for U9C G41A : 1.06

self-cleavage reading for A69G U112A : 0.74

self-cleavage reading for A22G C145U : 0.97

self-cleavage reading for U104G A140G : 0.73

Ref: the RNAGym collection of RNA variant scans (doi:10.7554/elife.90254)
